- test-details: Cytotoxicity study (CellTiter 96 AQueous One) in HepG2 cells
- Format: cell-based
- experimental-conditions: human, 25 μM, read-out: Cells viability (%, means ± SEM) HepG2
reported-endpoint: viability at 48 h, 25 µM (%)
Record the value in %, omitting the unit from your answer.

Q: Look up viability at 48 h, 25 µM of COc1ccc(/C=C/C(=O)c2ccccc2O)cc1 [CH1] and report it.
Ans: 35.3

====

The reader will find reported EC50 values listed item by item below.
- Tested on: ZIKV (SV0010/15)
- test-details: Antiviral efficacy (EC50) in virus infected LLC/MK2 cells, plaque assay
- Format: cell-based, Zika virus
- experimental-conditions: Zika virus, LLC/MK2, plaque assay in 24-well plates
Record the value in µM, omitting the unit from your answer.

[[record]]
compound = "O=c1cc(-c2ccccc2)oc2c(I)c(O)c(I)c(O)c12 [FV14, 6,8-diiodo-5,7-dihydroxyflavone]"
reported_endpoint = "EC50"
units = "µM"
value_observed = 1.39


Alright, here's another compound for you.
Q: Look up EC50 of O=c1cc(-c2ccccc2)oc2c(Br)c(O)c(Br)c(O)c12 [FV13, 6,8-dibromo-5,7-dihydroxyflavone] and report it.
Ans: 1.65

====

- test-details: Cytotoxicity study, summary statements over human-derived cell lines
- Format: cell-based
- experimental-conditions: HepG2 and HEK-293 cells, THP-1, HepG2, HEK-293, 10 and 25 µM, Table 2
reported-endpoint: viability at 48 h

[[record]]
compound = "O=c1cc(-c2ccccc2)oc2c(Br)c(O)c(Br)c(O)c12 [FV13, 6,8-dibromo-5,7-dihydroxyflavone]"
value_observed = "> 80%"


Alright, here's another compound for you.
Q: Look up viability at 48 h of O=c1cc(-c2ccccc2)oc2c(I)c(O)c(I)c(O)c12 [FV14, 6,8-diiodo-5,7-dihydroxyflavone] and report it.
Ans: > 80%

====

- test-details: Cytotoxicity study (CellTiter 96 AQueous One) in THP-1 cells
- Assay type: cell-based
- experimental-conditions: human, 25 μM, read-out: Cells viability (%, means ± SEM) THP-1
reported-endpoint: viability at 48 h, 25 µM
Give me the value, and tack the unit on after it.

Q: Look up viability at 48 h, 25 µM of COc1ccc(/C=C/C(=O)c2ccccc2O)cc1 and report it.
Ans: 84.8%

====

- test-details: Cytotoxicity study (CellTiter 96 AQueous One) in Vero cells
- Assay type: cell-based
- experimental-conditions: African green monkey; 25 μM; 48 h; read-out: Cells viability (%, means ± SEM) Vero
reported-endpoint: viability at 48 h, 25 µM
Give me the value, and tack the unit on after it.

Q: Look up viability at 48 h, 25 µM of COc1ccc(/C=C/C(=O)c2ccccc2O)cc1 and report it.
Ans: 80.4%

====

- test-details: Cytotoxicity study (CellTiter 96 AQueous One) in THP-1 cells
- Type: cell-based
- experimental-conditions: human, THP-1 cells, 25 μM, read-out: Cells viability (%, means ± SEM) THP-1
reported-endpoint: viability at 48 h, 25 µM (%)
Record the value in %, omitting the unit from your answer.

[[record]]
compound = "O=c1cc(-c2ccccc2)oc2c(I)c(O)c(I)c(O)c12 [FV14, 6,8-diiodo-5,7-dihydroxyflavone]"
reported_endpoint = "viability at 48 h, 25 µM"
value_observed = 93.9


Q: Look up viability at 48 h, 25 µM of O=c1cc(-c2ccccc2)oc2c(Br)c(O)c(Br)c(O)c12 [FV13, 6,8-dibromo-5,7-dihydroxyflavone] and report it.
Ans: 86.9

====

- test-details: Cytotoxicity study (CellTiter 96 AQueous One) in HepG2 cells
- Assay type: cell-based
- experimental-conditions: human, HepG2 cells, 10 μM, read-out: Cells viability (%, means ± SEM) HepG2
reported-endpoint: viability at 48 h, 10 µM (%)
Record the value in %, omitting the unit from your answer.

[[record]]
compound = "O=c1cc(-c2ccccc2)oc2c(I)c(O)c(I)c(O)c12 [FV14, 6,8-diiodo-5,7-dihydroxyflavone]"
units = "%"
value_observed = 85.6


Alright, here's another compound for you.
Q: Look up viability at 48 h, 10 µM of O=c1cc(-c2ccccc2)oc2c(Br)c(O)c(Br)c(O)c12 [FV13, 6,8-dibromo-5,7-dihydroxyflavone] and report it.
Ans: 85.8

====

- test-details: Cytotoxicity study (CellTiter 96 AQueous One) in LLC/MK2 cells
- Format: cell-based
- experimental-conditions: rhesus monkey, LLC/MK2 cells; 25 μM; 48 h; read-out: Cells viability (%, means ± SEM) LLC/MK2
reported-endpoint: viability at 48 h, 25 µM (%)
Record the value in %, omitting the unit from your answer.

[[record]]
compound = "O=c1cc(-c2ccccc2)oc2c(I)c(O)c(I)c(O)c12 [FV14, 6,8-diiodo-5,7-dihydroxyflavone]"
reported_endpoint = "viability at 48 h, 25 µM"
value_observed = 60.9


Q: Look up viability at 48 h, 25 µM of O=c1cc(-c2ccccc2)oc2c(Br)c(O)c(Br)c(O)c12 [FV13, 6,8-dibromo-5,7-dihydroxyflavone] and report it.
Ans: 59.4

====

- test-details: Cytotoxicity study (CellTiter 96 AQueous One) in THP-1 cells
- Type: cell-based
- experimental-conditions: human, 10 μM, read-out: Cells viability (%, means ± SEM) THP-1
reported-endpoint: viability at 48 h, 10 µM (%)
Record the value in %, omitting the unit from your answer.

Q: Look up viability at 48 h, 10 µM of COc1ccc(/C=C/C(=O)c2ccccc2O)cc1 and report it.
Ans: 93.1

====

The reader will find reported viability at 48 h, 10 µM values listed item by item below.
- test-details: Cytotoxicity study (CellTiter 96 AQueous One) in Vero cells
- Format: cell-based
- experimental-conditions: African green monkey, Vero cells; 10 μM; 48 h; read-out: Cells viability (%, means ± SEM) Vero
Record the value in %, omitting the unit from your answer.

[[record]]
compound = "O=c1cc(-c2ccccc2)oc2c(I)c(O)c(I)c(O)c12 [FV14, 6,8-diiodo-5,7-dihydroxyflavone]"
value_observed = 45.4


Alright, here's another compound for you.
Q: Look up viability at 48 h, 10 µM of O=c1cc(-c2ccccc2)oc2c(Br)c(O)c(Br)c(O)c12 [FV13, 6,8-dibromo-5,7-dihydroxyflavone] and report it.
Ans: 53.1

====

- test-details: Cytotoxicity study (CellTiter 96 AQueous One) in LLC/MK2 cells
- Type: cell-based
- experimental-conditions: rhesus monkey, LLC/MK2 cells; 10 μM; 48 h; read-out: Cells viability (%, means ± SEM) LLC/MK2
reported-endpoint: viability at 48 h, 10 µM
Give me the value, and tack the unit on after it.

[[record]]
compound = "O=c1cc(-c2ccccc2)oc2c(I)c(O)c(I)c(O)c12 [FV14, 6,8-diiodo-5,7-dihydroxyflavone]"
reported_endpoint = "viability at 48 h, 10 µM"
value_observed = "60.2%"


Alright, here's another compound for you.
Q: Look up viability at 48 h, 10 µM of O=c1cc(-c2ccccc2)oc2c(Br)c(O)c(Br)c(O)c12 [FV13, 6,8-dibromo-5,7-dihydroxyflavone] and report it.
Ans: 81%

====

- System: DENV1 (16007)
- test-details: Antiviral efficacy (EC50) in virus infected LLC/MK2 cells, plaque assay
- Type: cell-based, Dengue virus
- experimental-conditions: Dengue virus, DENV1, LLC-MK2
The reader will find reported pEC50 values listed item by item below.
# log scale: pEC50 equals minus log10 of the concentration in mol/L

[[record]]
compound = "O=c1cc(-c2ccccc2)oc2c(Br)c(O)c(Br)c(O)c12 [FV13, 6,8-dibromo-5,7-dihydroxyflavone]"
value_observed = 5.64


Alright, here's another compound for you.
Q: Look up pEC50 of O=c1cc(-c2ccccc2)oc2c(I)c(O)c(I)c(O)c12 [FV14, 6,8-diiodo-5,7-dihydroxyflavone] and report it.
Ans: 5.64

====

- test-details: Cytotoxicity study (CellTiter 96 AQueous One) in LLC/MK2 cells
- Type: cell-based
- experimental-conditions: rhesus monkey; 10 μM; 48 h; read-out: Cells viability (%, means ± SEM) LLC/MK2
reported-endpoint: viability at 48 h, 10 µM (%)
Record the value in %, omitting the unit from your answer.

Q: Look up viability at 48 h, 10 µM of COc1ccc(/C=C/C(=O)c2ccccc2O)cc1 [CH1] and report it.
Ans: 61.5

====

- test-details: Cytotoxicity study (CellTiter 96 AQueous One) in HEK-293 cells
- Format: cell-based
- experimental-conditions: human, HEK-293 cells, 10 μM, read-out: Cells viability (%, means ± SEM) HEK-293
- Experimental: The cytotoxicity of active compounds was tested on LLC-MK2, Vero, THP-1, HEK-293, HepG2 and C6/36 cell lines. Each cell line was seeded at 1 × 10^4 cells per well in 96-well plates and incubated overnight. […] Cell viability was analyzed using CellTiter 96® AQueous One Solution Cell Proliferation Assay kit (Promega, Wisconsin-Madison, USA) according to manufacturer’s protocol. The plate was read at the A 450 in a VICTORTM × 3 microplate reader (PerkinElmer, Massachusetts, USA). […]
reported-endpoint: viability at 48 h, 10 µM (%)
Record the value in %, omitting the unit from your answer.

[[record]]
compound = "O=c1cc(-c2ccccc2)oc2c(Br)c(O)c(Br)c(O)c12 [FV13, 6,8-dibromo-5,7-dihydroxyflavone]"
value_observed = 98.1


Alright, here's another compound for you.
Q: Look up viability at 48 h, 10 µM of O=c1cc(-c2ccccc2)oc2c(I)c(O)c(I)c(O)c12 [FV14, 6,8-diiodo-5,7-dihydroxyflavone] and report it.
Ans: 80.5
